target: melatonin receptor; assay: Action of inhibiting 2-[^125 I]iodomelatonin binding (forebrain membrane sample); conditions: 80 pM 2-[^125 I]iodomelatonin, chicken forebrain membranes, 90 minutes at 25° C., pH 7.7; non-specific binding with 10 μM melatonin; log-probit analysis; read-out: IC50 (50% inhibiting concentration), inhibition of 2-[^125 I]iodomelatonin binding
pIC50: −log10 of the molar value.
measured-parameter: pIC50

molecule-smiles	pIC50
COc1ccc2nc(Cl)cc(CCNC(C)=O)c2c1	8.08
COc1ccc2nc(Cl)cc(CCNC(=O)C(F)(F)F)c2c1	8.05
